- targetEntity: ATIC homodimer (Gallus gallus)
- Construct: expressed in transfected cells; host or cells: E. coli RTHS strain with the ATIC fusion integrated on the chromosome
- Sequence (P31335 1-593): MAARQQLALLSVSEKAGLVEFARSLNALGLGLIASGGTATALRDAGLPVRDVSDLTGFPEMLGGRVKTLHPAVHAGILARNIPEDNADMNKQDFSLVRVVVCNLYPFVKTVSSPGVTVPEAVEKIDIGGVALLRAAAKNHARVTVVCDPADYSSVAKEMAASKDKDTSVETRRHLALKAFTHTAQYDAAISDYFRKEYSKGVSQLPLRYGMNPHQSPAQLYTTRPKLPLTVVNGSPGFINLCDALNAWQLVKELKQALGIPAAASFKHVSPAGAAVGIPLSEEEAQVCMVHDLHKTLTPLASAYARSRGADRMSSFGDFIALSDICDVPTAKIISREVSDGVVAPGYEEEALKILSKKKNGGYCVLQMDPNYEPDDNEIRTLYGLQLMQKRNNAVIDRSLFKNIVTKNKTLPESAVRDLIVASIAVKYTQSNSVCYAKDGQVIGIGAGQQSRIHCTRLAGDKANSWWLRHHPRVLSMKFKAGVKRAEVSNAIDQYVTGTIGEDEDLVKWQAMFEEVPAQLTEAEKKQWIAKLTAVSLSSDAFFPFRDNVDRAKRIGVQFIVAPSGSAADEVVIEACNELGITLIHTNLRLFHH
- experimentalProtocol: ATIC RTHS ranking by spotting serial dilutions on selective media
- Type: cell-based
- runConditions: cyclic peptides in order of biological activity (1 = most active)
- Description: ATIC was cloned as a fusion with the bacteriophage 434 repressor DNA binding domain (into pTHCP16, FIG. 1B) such that expression of the repressor-ATIC fusion placed under control of an isopropyl β-D-thiogalactoside (IPTG) inducible promoter. […] In order to improve selection conditions, a new RTHS strain was constructed by integrating the ATIC fusion onto the chromosome. The level of IPTG giving optimal repression was determined to be 50 μM by β-galactosidase assays. […]
Ends that are not written are not given here.
In this section, each of the substances is paired with its reported Activity Rank.

substance	Activity Rank
S M M V L C (SMMVLC) [c-15]	3
R F F I C C (RFFICC; also: cyclic peptide, ring type not given here) [c-4]	2
T V L M F C (TVLMFC) [c-6]	3
P V L L L C (PVLLLC) [c-26]	3
R I L Q L C (RILQLC) [c-8]	2
M L L I V C (MLLIVC) [c-25]	3
R I L V L C (RILVLC) [c-5]	3

---

Reported pKi values are given for each entry in this list.
- targetEntity: avian ATIC (AICAR Tfase) (Gallus gallus, UniProt P31335)
- experimentalProtocol: AICAR Tfase assay
pKi: −log10 of the molar value. Ends that are not written are not given here.
quantityMeasured: pKi

substance	recordedResult
RYFNVC [l-1a, RYFNVC]	3.85
WMFLNVSG [l-151]	3.76
